B1: HDV Ribozyme (parent)
chain: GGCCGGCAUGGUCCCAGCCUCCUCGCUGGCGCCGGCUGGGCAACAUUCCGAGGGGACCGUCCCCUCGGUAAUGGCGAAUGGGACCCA

Variants of: B1
Test summary: self-cleavage, relative activity (ratio to wild type); higher = more cleavage; co-transcriptional
Recorded metric: self-cleavage

• GGCCGGCAUGGUCCCAGCCUCAUCGCUGGCGCCGGCUGGGCAACAUUCCGAGGGGACCGUCCCCUCGGUAAUGCCGAAUGGGACCCA [C22A G74C] = 0.146

query: Recorded self-cleavage for GGCCGGCAUGGUCCCAGCCUCCUCGCUGGCGCCGGCUGGGCAACAUCCCGAGGGGACCGUCCCCUCGGGAAUGGCGAAUGGGACCCA [U47C U69G] , please?
result: 1.02

query: Recorded self-cleavage for GGCCGGCAUGGUCCCAGCCUCCUCGCUGGCGCCGGAUGGGCAACAUUCCGAGGGGACCGUCCCCUCGGUAAUGGCGAAUGGGACCGA [C36A C86G] , please?
result: 0.325

query: Recorded self-cleavage for GGCCGGCAUGGUCCCAGCCUCCUCGCGGGCGCCGGCUGGGCAACAUUCCGAGGGGACCGUCCCCUCGGUACUGGCGAAUGGGACCCA [U27G A71C] , please?
result: 0.7

query: Recorded self-cleavage for GGCCGGCAUGGUCCCAACCUCCUCGCUGGCGCCGGCUGGGCAACAUUCCGAGGGGACCGUCCCCUCGGUAAUGGCGUAUGGGACCCA [G17A A77U] , please?
result: 0.138

query: Recorded self-cleavage for GGCCGGCAUGGUCCCAGCCUCCUCGCUGGCGCCGGCUGGGCAACAUACCGAGGGUACCGUCCCCUCGGUAAUGGCGAAUGGGACCCA [U47A G55U] , please?
result: 1.01

query: Recorded self-cleavage for GGCCGGCAUGGUCCCAGCCUCCUCGCUGGCGCCGGCUGGGCAAAAUUCCGAGGGGACCGUCCCCUCGCUAAUGGCGAAUGGGACCCA [C44A G68C] , please?
result: 0.764

query: Recorded self-cleavage for GGCCGGCAUGGUCCCAGCCUCCUCGCUGGCGCCGGCUGGUCAACAUUCCGAGGGGACCGUCCCCUCGGCAAUGGCGAAUGGGACCCA [G40U U69C] , please?
result: 0.91

query: Recorded self-cleavage for GGCCGGCAUGGUCCCAGCCUCCUGGCUGGCGCCGGCUGUGCAACAUUCCGAGGGGACCGUCCCCUCGGUAAUGGCGAAUGGGACCCA [C24G G39U] , please?
result: 0.0314

query: Recorded self-cleavage for GGCCGGCAUGGUCCCAGCCUCCUCGCUGGCGCCGGCUGGGCAACAUUCCGAGGGGACCGUCCCCUCGGCAAGGGCGAAUGGGACCCA [U69C U72G] , please?
result: 0.529
